Data origin: paper PMC10397247

Can you tell me interaction score for the items I'm about to list?
Biological target: T1, 4H264-bH
T1 chain: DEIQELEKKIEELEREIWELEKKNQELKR
Assay: two-hybrid library CCNG1;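 also: natural log of median RNA to DNA barcode read ratio; higher means stronger binding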
Answer using only a numeral; do not append any unit.

Request: Assign interaction score to the following record: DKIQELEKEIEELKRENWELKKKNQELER [4H2143-bH]
Result: 0.605

Request: Assign interaction score to the following record: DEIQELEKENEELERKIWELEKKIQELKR [4H166-bH]
Result: 0.0745

Request: Assign interaction score to the following record: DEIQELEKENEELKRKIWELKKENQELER [4H235-bH]
Result: -0.718

Request: Assign interaction score to the following record: DEIQELEKKIEELEREIWELEKKNQELKR [4H264-bH]
Result: 0.678

Request: Assign interaction score to the following record: DKIQELKKEIEELERENWELKKEIQELER [4H2585-bH]
Result: -0.751

Request: Assign interaction score to the following record: DKIQELEKKNEELKRENWELEKKIQELKR [4H2518-bH]
Result: -1.77

Request: Assign interaction score to the following record: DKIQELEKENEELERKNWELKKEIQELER [4H2233-bH]
Result: -0.0896
